Recorded EC50, one value per entry.
Biological target: Melanocortin receptor 4 (Homo sapiens);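 note: Cell-based assay with luminescence read-out, confirmatory dose-response testing for agonist activity of biased ligands at MC4R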;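 note: human U2OS cells with tagged receptor and beta-arrestin; potency of agonists that increase receptor coupling to beta-arrestin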
Sequence (P32245 whole entry): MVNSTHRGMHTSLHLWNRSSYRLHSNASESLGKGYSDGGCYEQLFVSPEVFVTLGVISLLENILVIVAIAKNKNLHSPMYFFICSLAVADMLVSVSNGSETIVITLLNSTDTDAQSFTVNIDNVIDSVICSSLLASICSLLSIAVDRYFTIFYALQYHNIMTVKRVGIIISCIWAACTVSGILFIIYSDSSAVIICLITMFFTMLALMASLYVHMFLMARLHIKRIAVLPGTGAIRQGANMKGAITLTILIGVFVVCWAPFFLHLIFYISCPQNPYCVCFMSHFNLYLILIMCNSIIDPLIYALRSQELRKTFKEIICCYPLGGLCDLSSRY
Assay type: functional, cell-based
Calls of active or inactive are those of the source.

Here is how some molecules turned out for EC50.
[[record]]
mol = "O=C(Nc1cccc(NC(=S)NC(=O)c2cccs2)c1)c1ccccc1"
value_type = "EC50"
value = "> 89.2 µM (inactive)"

[[record]]
mol = "CCN1CCN(Cc2ccc(NC(=O)c3cc(NC(=O)c4cc5cccc(OC)c5o4)cc(OC)c3)cc2C(F)(F)F)CC1"
value_type = "EC50"
value = "> 89.2 µM (inactive)"

[[record]]
mol = "CCOc1ccc(NC(=S)NC(=O)/C=C/c2ccc(C)cc2)c([N+](=O)[O-])c1"
value_type = "EC50"
value = "> 89.2 µM (inactive)"


As a next step, examine the molecule that follows.
Lab note: need EC50 with Melanocortin receptor 4 (Homo sapiens) for entry "CC(/C=C/C=C/c1ccccc1)=N/NC(=O)CNc1ccccc1C" , please look it up. > 89.3 µM (inactive)

====

Biological target: Caspase-3 (Homo sapiens, UniProt P42574);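 note: Dose-response selectivity test against caspase-3 for candidate inhibitors of sentrin-specific proteases (SENPs)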
Sequence (P42574 29-175 limits assumed): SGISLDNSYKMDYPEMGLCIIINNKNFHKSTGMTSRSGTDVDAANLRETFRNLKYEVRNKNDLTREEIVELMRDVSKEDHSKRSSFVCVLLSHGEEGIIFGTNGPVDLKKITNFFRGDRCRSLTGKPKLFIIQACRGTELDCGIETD
Sequence (P42574 176-277 limits assumed): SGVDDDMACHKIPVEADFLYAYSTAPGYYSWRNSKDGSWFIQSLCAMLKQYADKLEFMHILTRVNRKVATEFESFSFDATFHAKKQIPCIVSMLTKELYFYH
Assay type: functional
Calls of active or inactive are those of the source.
value-type: IC50

Here is how some molecules turned out for IC50.
[[record]]
mol = "c1ccc(CCNc2ncnc3c2cnn3-c2ccccc2)cc1"
value = "22.5 µM (active)"

[[record]]
mol = "O=C(O)c1ccc(COc2ccccc2[N+](=O)[O-])o1"
value = "> 100 µM (inactive)"

[[record]]
mol = "O=C(N/N=C/C(Cl)=C\\c1ccccc1)c1cccs1"
value = "28.7 µM (active)"


As a next step, examine the molecule that follows.
Value lookup for IC50; key = "COc1ccc(-c2noc(Cc3cccs3)n2)cc1" 27.3 µM (active)

====

Record type: AC50 measurement. Applies to: Cytochrome P450 2C9 (Homo sapiens)

Here is how some molecules turned out for AC50.
[[record]]
molecule = "COc1ccc(NC(=O)NCCCN2CCCCC2C)cc1 (stereo unspecified)"
value = "1.26 µM (inconclusive)"

[[record]]
molecule = "O=C(CSc1nncn1-c1ccccc1)Nc1ccc(N2CCOCC2)cc1"
value = "12.6 µM (inconclusive)"

[[record]]
molecule = "O=[N+]([O-])c1ccc(/C=N/c2ccc(Cl)cc2Cl)s1"
value = "2.24 µM (inconclusive)"

[[record]]
molecule = "CCOc1ccc(NC(=S)NC(=O)/C=C/c2ccc(C)cc2)c([N+](=O)[O-])c1"
value = "3.55 µM (inconclusive)"

[[record]]
molecule = "Cc1ccccc1C(=O)c1c[nH]c(C(=O)NCc2cccs2)c1"
value = "3.55 µM (inconclusive)"

[[record]]
molecule = "N#Cc1cccc(NC(=O)N2CC[C@@]3(CCCN(S(=O)(=O)c4ccccc4)C3)C2)c1"
value = "39.8 µM (inconclusive)"

[[record]]
molecule = "Cc1ccc(-c2ncccc2OC(=O)C23CC4CC(CC(C4)C2)C3)cc1"
value = "31.6 µM (inconclusive)"

[[record]]
molecule = "COCCN=C(S)NC1CC2CCCC(C1)N2Cc1cccs1 (stereo unspecified)"
value = "39.8 µM (inconclusive)"

[[record]]
molecule = "Cc1ccc(C(=O)N/N=C\\c2cccn2C)cn1"
value = "89.1 µM (inconclusive)"

[[record]]
molecule = "Nc1ccc(/N=N\\c2ccccc2)c(N)n1"
value = "15.8 µM (inconclusive)"


As a next step, examine the molecule that follows.
Value lookup for AC50; key = "O=c1c(-c2ccc(F)cc2)nc2cnc(Oc3ccccc3)nc2n1Cc1cccs1" 2.51 µM (inconclusive)

Where do these numbers come from? They come from ChEMBL document CHEMBL1201862.
